- measurement-notes: Enzyme-catalyzed hydrolysis in human CD4+ T-lymphocyte CEM cell extracts
- Assay type: in vitro ADME
- measurement-conditions: CEM/0 cell extracts (CD4+ T-lymphocytes); human CD4+ T-lymphocyte CEM cell extracts, 37 °C; read-out: CEM/0 cell extracts t 1/2 (converted)
- Description: The stability of prodrugs 6 and the γ‐alkyl‐NTPs 7 was further investigated in human CD4 ^+ T‐lymphocyte CEM cell extracts. […] Thus, an enzymatic cleavage reaction took place. Half‐lives as low as 0.4 h (6 az) to 5.2 h (6 dz) were determined. […] In all cases we observed the predominant formation of γ‐alkyl‐d4TTPs 7 and d4TDP 2 d in very low concentration (Figure 2 B) but no NTP formation was detected, in contrast to the studies using the previously described TriPPPro compounds 5.[ ^23 , ^24 ] […]
quantity-measured: half-life at 0.86 mM (h)

Before answering, review these 2 worked examples.
CCCCOP(=O)(OCc1ccc(OC(=O)CCCC)cc1)OP(=O)(O)OP(=O)(O)OCC1C=CC(n2cc(C)c(=O)[nH]c2=O)O1 (centres unmarked)    0.7
CCCCCCCCCCCCCCCCCC(=O)Oc1ccc(COP(=O)(OCc2ccc(OC(=O)CCCC)cc2)OP(=O)(O)OP(=O)(O)OCC2C=CC(n3cc(C)c(=O)[nH]c3=O)O2)cc1 (centres unmarked) [5 b, reference compound]    3.3

(P) CCCCCCCCCCCCCCCOP(=O)(OCc1ccc(OC(=O)CCCCCC)cc1)OP(=O)(O)OP(=O)(O)OCC1C=CC(n2cc(C)c(=O)[nH]c2=O)O1 (centres unmarked)
(Q) CCCCCCCCCCCCCCCCCCOP(=O)(OCc1ccc(OC(C)=O)cc1)OP(=O)(O)OP(=O)(O)OCC1C=CC(n2cc(C)c(=O)[nH]c2=O)O1 (centres unmarked)
Q: Hi there! Just curious which has the higher half-life at 0.86 mM between P and Q . Lab log: write the label of the selected item as the result.
Result: P
(P: 3.6 h, Q: 0.4 h)

(P) CCCCCCCCC(=O)Oc1ccc(COP(=O)(OCc2ccc(OC(=O)CCCCCCCC)cc2)OP(=O)(O)OP(=O)(O)OCC2C=CC(n3cc(C)c(=O)[nH]c3=O)O2)cc1 (centres unmarked) [5 a, reference compound]
(Q) CCCCCCCCCCCCCCCOP(=O)(OCc1ccc(OC(=O)CCCCCCCCCCCCCCC)cc1)OP(=O)(O)OP(=O)(O)OCC1C=CC(n2cc(C)c(=O)[nH]c2=O)O1 (centres unmarked)
(R) CCCCCCCCCCCCCCCCCCOP(=O)(OCc1ccc(OC(=O)CCCCCC)cc1)OP(=O)(O)OP(=O)(O)OCC1C=CC(n2cc(C)c(=O)[nH]c2=O)O1 (centres unmarked)
Q: Sort ascending by half-life at 0.86 mM. The response must list the labels following the requested ordering.
Result: P, Q, R
(P: 1.6 h, Q: 2.5 h, R: 5.2 h)

(A) CCCCCCCCCCCCCCCC(=O)Oc1ccc(COP(=O)(OCCCC)OP(=O)(O)OP(=O)(O)OCC2C=CC(n3cc(C)c(=O)[nH]c3=O)O2)cc1 (centres unmarked)
(B) CCCCCCCCCCCCCCCCCCOP(=O)(OCc1ccc(OC(=O)CCCC)cc1)OP(=O)(O)OP(=O)(O)OCC1C=CC(n2cc(C)c(=O)[nH]c2=O)O1 (centres unmarked)
Q: Identify the entry with the smaller half-life at 0.86 mM: A or B . Lab log: write the label of the selected item as the result.
Result: A
(A: 2.2 h, B: 4.8 h)

----------
- Tested on: HIV-2(ROD)
- measurement-notes: Anti-HIV activity assay, HIV-2-infected thymidine-kinase-deficient CEM/TK- cell cultures
- Type: cell-based
- measurement-conditions: Human immunodeficiency virus 2, CEM-TK(-), read-out: EC50 CEM/TK− HIV-2
quantity-measured: pEC50
// pEC50 here means minus log10 of the molar concentration (mol/L)

Q: Suppose we examine the compound CCCCCCCCCCCCCCCCCCOP(=O)(OCc1ccc(OC(=O)CC)cc1)OP(=O)(O)OP(=O)(O)OCC1C=CC(n2cc(C)c(=O)[nH]c2=O)O1 (stereo not shown) ; what pEC50 value has been reported?
Result: 6.46

----------
- measurement-notes: Chemical hydrolysis in aqueous phosphate buffer (PBS, pH 7.3)
- Format: physicochemical
- measurement-conditions: phosphate buffered saline (PBS); aqueous 25 mM phosphate buffer, pH 7.3, 37 °C; removal of AB group; n.h. = no hydrolysis observed through cleavage of AB-mask; read-out: PBS pH 7.3 t 1/2 (converted)
quantity-measured: half-life at 0.92 mM (h)

Before answering, review these 5 worked examples.
CCCCCCCCCCCCCCCCCC(=O)Oc1ccc(COP(=O)(OCc2ccc(OC(=O)CCCC)cc2)OP(=O)(O)OP(=O)(O)OCC2C=CC(n3cc(C)c(=O)[nH]c3=O)O2)cc1 (centres unmarked) [5 b, reference compound]    50
CCCCCCCCCCCCCCCOP(=O)(OCc1ccc(OC(=O)CCCC)cc1)OP(=O)(O)OP(=O)(O)OCC1C=CC(n2cc(C)c(=O)[nH]c2=O)O1 (centres unmarked) [6 cy]    197
CCCCCCCCCCCCCCCCCCOP(=O)(OCc1ccc(OC(=O)CC)cc1)OP(=O)(O)OP(=O)(O)OCC1C=CC(n2cc(C)c(=O)[nH]c2=O)O1 (centres unmarked) [6 bz]    206
CCCCCCCCCCCCCCCCCCOP(=O)(OCc1ccc(OC(=O)CCCC)cc1)OP(=O)(O)OP(=O)(O)OCC1C=CC(n2cc(C)c(=O)[nH]c2=O)O1 (centres unmarked) [6 cz, γ‐(AB‐C4,alkyl‐C18)‐d4TTP]    237
CCCCCCCCCCCCCCCCCCOP(=O)(OCc1ccc(OC(=O)CCCCCC)cc1)OP(=O)(O)OP(=O)(O)OCC1C=CC(n2cc(C)c(=O)[nH]c2=O)O1 (centres unmarked) [6 dz]    269

(A) CCCCCCCCCCCCCCCOP(=O)(OCc1ccc(OC(=O)CCCCCCCCCCCCCCC)cc1)OP(=O)(O)OP(=O)(O)OCC1C=CC(n2cc(C)c(=O)[nH]c2=O)O1 (centres unmarked) [6 ey]
(B) CCCCOP(=O)(OCc1ccc(OC(=O)CCCC)cc1)OP(=O)(O)OP(=O)(O)OCC1C=CC(n2cc(C)c(=O)[nH]c2=O)O1 (centres unmarked) [6 cw]
Q: Identify the entry with the smaller half-life at 0.92 mM: A or B . Lab log: write the label of the selected item as the result.
Result: B

----------
- measurement-notes: Cytotoxicity: inhibition of CD4+ T-cell (CEM) proliferation
- Assay type: cell-based
- measurement-conditions: human, CEM/0 cells (CD4+ T-cells), 50 % cytostatic concentration, mean±SD, n=2-3
Item-by-item account of CC50
State the answer as a number, implicitly in µM.

Before answering, review these 3 worked examples.
CCCCCCCCCCCCCCCCCCOP(=O)(OCc1ccc(OC(=O)CC)cc1)OP(=O)(O)OP(=O)(O)OCC1C=CC(n2cc(C)c(=O)[nH]c2=O)O1 (stereo not drawn)    11
CCCCCCCCCCCCCCCOP(=O)(OCc1ccc(OC(=O)CCCCCC)cc1)OP(=O)(O)OP(=O)(O)OCC1C=CC(n2cc(C)c(=O)[nH]c2=O)O1 (stereo not drawn)    18
CCCCCCCCCCCCCCCCCCOP(=O)(OCc1ccc(OC(C)=O)cc1)OP(=O)(O)OP(=O)(O)OCC1C=CC(n2cc(C)c(=O)[nH]c2=O)O1 (stereo not drawn)    17

Q: Suppose we examine the compound CCCCCCCCCCCCCCCCCCOP(=O)(OCc1ccc(OC(=O)CCCCCC)cc1)OP(=O)(O)OP(=O)(O)OCC1C=CC(n2cc(C)c(=O)[nH]c2=O)O1 (stereo not drawn) ; what CC50 value has been reported?
Result: 27

Q: Here is the next compound: CCCCCCCCCCCCCCCOP(=O)(OCc1ccc(OC(=O)CCCC)cc1)OP(=O)(O)OP(=O)(O)OCC1C=CC(n2cc(C)c(=O)[nH]c2=O)O1 (stereo not drawn)
Result: 21

Q: Here is the next compound: CCCCCCCCC(=O)Oc1ccc(COP(=O)(OCc2ccc(OC(=O)CCCCCCCC)cc2)OP(=O)(O)OP(=O)(O)OCC2C=CC(n3cc(C)c(=O)[nH]c3=O)O2)cc1 (stereo not drawn) [5 a, reference compound]
Result: 52

Q: Here is the next compound: CCCCCCCCCCCOP(=O)(O)OP(=O)(O)OP(=O)(O)OCC1C=CC(n2cc(C)c(=O)[nH]c2=O)O1 (stereo not drawn)
Result: 78

Q: Here is the next compound: CCCCCCCCCCCCCCCCCCOP(=O)(O)OP(=O)(O)OP(=O)(O)OCC1C=CC(n2cc(C)c(=O)[nH]c2=O)O1 (stereo not drawn)
Result: 86

Q: Here is the next compound: CCCCCCCCCCCCCCCCCC(=O)Oc1ccc(COP(=O)(OCc2ccc(OC(=O)CCCC)cc2)OP(=O)(O)OP(=O)(O)OCC2C=CC(n3cc(C)c(=O)[nH]c3=O)O2)cc1 (stereo not drawn) [5 b, reference compound]
Result: 33

Q: Here is the next compound: CCCCCCCCCCCCCCCOP(=O)(OCc1ccc(OC(=O)CCCCCCCCCCCCCCC)cc1)OP(=O)(O)OP(=O)(O)OCC1C=CC(n2cc(C)c(=O)[nH]c2=O)O1 (stereo not drawn)
Result: 48
